Source: patent US20230116972A1

Give activity at 3 µM for every item shown.
Molecular target: CYP2C9 (Homo sapiens, UniProt P11712)
Construct: from tissue; host or cells: human liver microsomes (pooled in the time-dependent assay)
Sequence (P11712 whole entry): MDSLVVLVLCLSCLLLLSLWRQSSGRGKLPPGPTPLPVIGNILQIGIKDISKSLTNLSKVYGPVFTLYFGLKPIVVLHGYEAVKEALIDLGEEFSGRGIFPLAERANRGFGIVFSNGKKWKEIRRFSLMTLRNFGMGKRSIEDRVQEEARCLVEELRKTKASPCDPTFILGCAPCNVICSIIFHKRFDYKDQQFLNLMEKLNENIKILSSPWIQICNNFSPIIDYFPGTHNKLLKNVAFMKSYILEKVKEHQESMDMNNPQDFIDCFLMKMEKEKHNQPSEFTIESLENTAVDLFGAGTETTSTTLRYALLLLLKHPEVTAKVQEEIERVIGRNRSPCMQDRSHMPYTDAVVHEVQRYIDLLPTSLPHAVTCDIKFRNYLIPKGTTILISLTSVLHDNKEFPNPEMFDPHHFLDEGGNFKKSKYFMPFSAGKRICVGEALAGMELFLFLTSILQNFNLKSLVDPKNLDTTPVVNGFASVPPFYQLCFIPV
Test: direct inhibition of CYP450 in human liver microsomes
Type: in vitro ADME
Conditions: 3 uM, % of non-inhibited control, read-out: CYP2C9 T0 % activity
Answer in %, number only, no unit symbol.

INPUT: Entry Cn1cncc1-c1ccnc(C(=O)N[C@H]2CC[C@H](O)CC2)n1 : reported activity at 3 µM = ?
OUTPUT: 90

INPUT: Entry [2H]c1nc([2H])n(-c2nc(C)cc(C(=O)N[C@H]3CC[C@H](OCCOC)CC3)n2)c1[2H] [Comparator Compound A, reference compound] : reported activity at 3 µM = ?
OUTPUT: 88

INPUT: Entry CO[C@H]1CC[C@H](NC(=O)c2nccc(-n3ccnc3)n2)CC1 : reported activity at 3 µM = ?
OUTPUT: 97

INPUT: Entry CC(C)(O)c1ccc(NC(=O)c2nccc(-n3ccnc3)n2)cn1 : reported activity at 3 µM = ?
OUTPUT: 106

INPUT: Entry Cn1cncc1-c1ccnc(C(=O)Nc2ccc(C(C)(C)O)nc2)n1 : reported activity at 3 µM = ?
OUTPUT: 99

INPUT: Entry CO[C@H]1CC[C@H](NC(=O)c2cc(C3(C)COC3)nc(-c3cncn3C)n2)CC1 : reported activity at 3 µM = ?
OUTPUT: 91

INPUT: Entry CO[C@H]1CC[C@H](NC(=O)c2cc(C3CCC(F)(F)CC3)nc(-c3cncn3C)n2)CC1 : reported activity at 3 µM = ?
OUTPUT: 96

INPUT: Entry CO[C@H]1CC[C@H](NC(=O)c2cc(C3CCOCC3)nc(-c3cncn3C)n2)CC1 : reported activity at 3 µM = ?
OUTPUT: 101
